test: Metabolic stability in mouse liver microsomes assessed as compound remaining at 5 uM after 1 hr; type: ADME, Microsome; settings: read-out: Stability
readoutKind: remaining at 1 h, 5 µM (%)

Here is how some molecules turned out for remaining at 1 h, 5 µM.
INSERT INTO assay_data (linenotation, readoutkind, testvalue) VALUES
  ('CC1(C)CN(C(N)=O)c2ccc(F)c(F)c2N1Cc1ccc(COc2ccccc2)cc1', 'remaining at 1 h, 5 µM', 51),
  ('CC1(C)CN(C(N)=O)c2ccc(F)c(F)c2N1Cc1ccc(COc2ccc(C(N)=O)cc2)cc1', 'remaining at 1 h, 5 µM', 56),
  ('CC(=O)Nc1ccc(OCc2ccc(CN3c4c(ccc(F)c4F)N(C(N)=O)CC3(C)C)cc2)cc1', 'remaining at 1 h, 5 µM', 34);

P: CC1(C)CN(C(N)=O)c2ccc(F)c(F)c2N1Cc1ccc(COc2ccc(CO)cc2)cc1
Q: CC1(C)CN(C(N)=O)c2ccc(F)c(F)c2N1Cc1ccccc1
Incoming: Could you please tell me which of these two has the higher remaining at 1 h, 5 µM: P or Q ? Label of pick, please.
Outgoing: P
